target: UniProtKB O14684; assay: Inhibition of human mPGES1 in IL1-beta treated human FF cells assessed as blockade of PGH2 to PGE2 conversion after 50 mins by ELISA; type: cell-based
Sequence (O14684 whole entry): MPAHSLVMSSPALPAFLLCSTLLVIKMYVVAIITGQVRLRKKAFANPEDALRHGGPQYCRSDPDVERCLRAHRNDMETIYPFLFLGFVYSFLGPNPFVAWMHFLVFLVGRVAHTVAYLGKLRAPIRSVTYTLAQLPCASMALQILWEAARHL
pIC50: −log10 of the molar value.
quantityName: pIC50

Completed entries (count: 2):
structureSmiles: O=C(Nc1ccc(-c2cccc(Cl)c2Cl)cc1)C1=C(O)c2ccccc2S(=O)(=O)N1
pIC50: > 6.04
//
structureSmiles: O=C(Nc1ccc(-c2ccc(Cl)cc2Cl)cc1)C1=C(O)c2ccccc2S(=O)(=O)N1
pIC50: > 6.12

Now take the following compound into account.
Ask: State, in one line, measured pIC50 of Cc1ccc(-c2ccc(NC(=O)C3=C(O)c4ccccc4S(=O)(=O)N3)cc2)cc1C
Reply: > 6.12

The origin of these recorded values is ChEMBL document CHEMBL1154975.
